assayName: Cytotoxicity against African green monkey Vero cells by luciferase-based cell viability assay
setupConditions: chlorocebus sabaeus
propertyMeasured: CC50

{"smilesEntry": "NC(=O)c1nccn([C@@H]2O[C@H](CO)[C@@H](O)[C@H]2O)c1=O", "CC50": "> 4 mM"}
{"smilesEntry": "NC(=O)c1nc(F)c[nH]c1=O", "CC50": "> 6.37 mM"}

Query: Provide measured CC50 value, entry: `NC(=O)c1ncn([C@@H]2O[C@H](CO)[C@@H](O)[C@H]2O)n1`
Response: > 4.1 mM

---

assayName: Selectivity index, ratio of CC50 for African green monkey vero cells to EC90 for Yellow fever virus 17D
Type: toxicity, cell-based
setupConditions: read-out: Selectivity Index
propertyMeasured: selectivity ratio

{"molecule": "NC(=O)c1nc(F)c[nH]c1=O [FAVIPIRAVIR]", "resultValue": "> 19"}
{"molecule": "NC(=O)c1ncn([C@@H]2O[C@H](CO)[C@@H](O)[C@H]2O)n1 [RIBAVIRIN]", "resultValue": "> 6"}

From here, focus on the item given below.
Query: Provide measured selectivity ratio value, entry: `NC(=O)c1nccn([C@@H]2O[C@H](CO)[C@@H](O)[C@H]2O)c1=O`
Response: > 3.6
